System: JNK1 mRNA
Experiment: Northern assay of JNK1 mRNA expression in A549 cells
Type: cell-based, human
Conditions: JNK1 mRNA, A549 cells, 400 nM oligonucleotide; 100% - % expression
Binary label based on % INHIBITION with cut-off 40%: below gives t, not below gives f.

Dear colleague, could you confirm whether % INHIBITION of 11988 (antisense ATCAATGACTAACCGACTCC; DNA, all phosphorothioate, methylation of C not given here) [compound 11988] falls below 40%? Thanks. t

Dear colleague, could you confirm whether % INHIBITION of 11979 (antisense CTCCTCCAAGTCCATAACTT; DNA, all phosphorothioate, methylation of C not given here) [compound 11979] falls below 40%? Thanks. t

Dear colleague, could you confirm whether % INHIBITION of 11980 (antisense CCCGTATAACTCCATTCTTG; DNA, all phosphorothioate, methylation of C not given here) [compound 11980] falls below 40%? Thanks. t

Dear colleague, could you confirm whether % INHIBITION of 11986 (antisense AGTCATCTACAGCAGCCCAG; DNA, all phosphorothioate, methylation of C not given here) [compound 11986] falls below 40%? Thanks. t

Dear colleague, could you confirm whether % INHIBITION of 11981 (antisense CTGTGCTAAAGGAGAGGGCT; DNA, all phosphorothioate, methylation of C not given here) [compound 11981] falls below 40%? Thanks. t

Dear colleague, could you confirm whether % INHIBITION of 11978 (antisense ATTCTTTCCACTCTTCTATT; DNA, all phosphorothioate, methylation of C not given here) [compound 11978] falls below 40%? Thanks. t

Dear colleague, could you confirm whether % INHIBITION of 12551 (antisense CCCATAATGCACCCCACAGA; DNA, all phosphorothioate, methylation of C not given here) [compound 12551] falls below 40%? Thanks. f

Dear colleague, could you confirm whether % INHIBITION of 11984 (antisense CTGTATCAGAGGCCAAAGTC; DNA, all phosphorothioate, methylation of C not given here) [compound 11984] falls below 40%? Thanks. f

----------
Tested on: JNK1 mRNA
Assay: Northern assay of JNK1 mRNA expression in A549 cells
Type: cell-based, human
Conditions: JNK1 mRNA, t = 72 h; 300 nM for 20 hours then 200 nM for 4 hours
e = 2'-O-(2-methoxyethyl) (MOE); [5mC] = 5-methylcytosine; d = 2'-deoxy (DNA)
Please go through the items and note down their RNA % Control.
Lab book: enter the figure in %, no units written.

Recorded RNA % Control for 15346 (antisense CTCTCTGTAGGCCCGCTTGG; sugars from the 5' end e5 d9 e6, [5mC] at 1, 3, 5, 16, all phosphorothioate, methylation of C not given here) [compound 15346] , please? 10.6

Recorded RNA % Control for 15351 (antisense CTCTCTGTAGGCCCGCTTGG; sugars from the 5' end e11 d9, [5mC] at 1, 3, 5, linkages o10 s9 (s phosphorothioate, o phosphodiester), methylation of C not given here) [compound 15351] , please? 46.1

Recorded RNA % Control for 15349 (antisense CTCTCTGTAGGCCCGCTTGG; sugars from the 5' end d9 e11, [5mC] at 12, 13, 14, 16, all phosphorothioate, methylation of C not given here) [compound 15349] , please? 52.0

Recorded RNA % Control for 15348 (antisense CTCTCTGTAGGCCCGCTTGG; sugars from the 5' end e11 d9, [5mC] at 1, 3, 5, all phosphorothioate, methylation of C not given here) [compound 15348] , please? 28.0

----------
Tested on: JNK1 mRNA
Assay: Northern assay of JNK1 mRNA expression in A549 cells
Type: cell-based, human
Settings: JNK1 mRNA, chemically modified oligonucleotides, dose 100 nM
Description: In order to evaluate the activity of potential JNK-modulating oligonucleotides, human lung carcinoma cell line A549 (American Type Culture Collection, Rockville, Md. No. ATCC CCL-185) cells or other cell lines as indicated in the Examples, were grown and treated with oligonucleotides or control solutions as detailed below. […] Northern Assays: The mRNA expression of each JNK protein was determined by using a nucleic acid probe specifically hybridizable thereto. […]
Strand notation (5' to 3'): a small letter for the sugar, then the base; units joined by * are phosphorothioate-linked, units joined directly phosphodiester-linked; [ ] holds rarer units or linkages, { } end groups; capitals alone tell only the bases. e = 2'-O-(2-methoxyethyl) (MOE); [5mC] = 5-methylcytosine; d = 2'-deoxy (DNA)
endpoint.name: Normalized % Control (%)
Lab book: enter the figure in %, no units written.

Recorded Normalized % Control for 12539 (antisense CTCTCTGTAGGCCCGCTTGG; DNA, all phosphorothioate, methylation of C not given here) [compound 12539] , please? 56.4

Recorded Normalized % Control for 15345 (antisense e[5mC]*eT*e[5mC]*eT*e[5mC]*eT*eG*eT*eA*eG*eG*e[5mC]*e[5mC]*e[5mC]*eG*e[5mC]*eT*eT*eG*eG) [compound 15345] , please? 95.4

Recorded Normalized % Control for 15347 (antisense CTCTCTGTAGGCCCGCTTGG; sugars from the 5' end e5 d9 e6, [5mC] at 1, 3, 5, 16, linkages o4 s10 o5 (s phosphorothioate, o phosphodiester), methylation of C not given here) [compound 15347] , please? 27.1

Recorded Normalized % Control for 15348 (antisense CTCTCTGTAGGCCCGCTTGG; sugars from the 5' end e11 d9, [5mC] at 1, 3, 5, all phosphorothioate, methylation of C not given here) [compound 15348] , please? 30.4

Recorded Normalized % Control for 15351 (antisense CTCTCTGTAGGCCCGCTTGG; sugars from the 5' end e11 d9, [5mC] at 1, 3, 5, linkages o10 s9 (s phosphorothioate, o phosphodiester), methylation of C not given here) [compound 15351] , please? 45.1

Recorded Normalized % Control for 15349 (antisense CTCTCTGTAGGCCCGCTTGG; sugars from the 5' end d9 e11, [5mC] at 12, 13, 14, 16, all phosphorothioate, methylation of C not given here) [compound 15349] , please? 42.5

Recorded Normalized % Control for 15346 (antisense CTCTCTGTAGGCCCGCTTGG; sugars from the 5' end e5 d9 e6, [5mC] at 1, 3, 5, 16, all phosphorothioate, methylation of C not given here) [compound 15346] , please? 22.6

Recorded Normalized % Control for 15350 (antisense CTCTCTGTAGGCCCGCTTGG; sugars from the 5' end d9 e11, [5mC] at 12, 13, 14, 16, linkages s9 o10 (s phosphorothioate, o phosphodiester), methylation of C not given here) [compound 15350] , please? 71.1

----------
Tested on: rat JNK2 mRNA
Assay: Northern assay of rat JNK2 (p54a) mRNA in A10 aortic smooth muscle cells
Type: cell-based
Conditions: rat JNK2 mRNA, A10 cells, oligonucleotides targeted to rat JNK1
Strand notation (5' to 3'): a small letter for the sugar, then the base; units joined by * are phosphorothioate-linked, units joined directly phosphodiester-linked; [ ] holds rarer units or linkages, { } end groups; capitals alone tell only the bases. e = 2'-O-(2-methoxyethyl) (MOE); [5mC] = 5-methylcytosine; d = 2'-deoxy (DNA)
Please go through the items and note down their % EXPRESSION JNK2.
Lab book: enter the figure in %, no units written.

Recorded % EXPRESSION JNK2 for 21860 (DNA eTeGeTeTeG*dT*d[5mC]*dA*d[5mC]*dG*dT*dT*dT*dA*d[5mC]*eTeTe[5mC]eTeG; antisense) [compound 21860] , please? 98

Recorded % EXPRESSION JNK2 for 21864 (DNA eTe[5mC]eGeTeT*d[5mC]*d[5mC]*dT*dG*d[5mC]*dA*dG*dT*d[5mC]*d[5mC]*eTeTeGe[5mC]e[5mC]; antisense) [compound 21864] , please? 106

Recorded % EXPRESSION JNK2 for 21857 (DNA e[5mC]eAeAe[5mC]eG*dT*d[5mC]*d[5mC]*d[5mC]*dG*d[5mC]*dG*d[5mC]*dT*d[5mC]*eGeGe[5mC]e[5mC]eG; antisense) [compound 21857] , please? 91

----------
System: rat JNK2 mRNA
Test: Northern assay of rat JNK2 (p54a) mRNA in A10 aortic smooth muscle cells
Format: cell-based
Details: rat JNK2 (p54a) mRNA in A10 cells, relative to LIPOFECTIN-only control
Strand notation (5' to 3'): a small letter for the sugar, then the base; units joined by * are phosphorothioate-linked, units joined directly phosphodiester-linked; [ ] holds rarer units or linkages, { } end groups; capitals alone tell only the bases. e = 2'-O-(2-methoxyethyl) (MOE); [5mC] = 5-methylcytosine; d = 2'-deoxy (DNA)
endpoint.name: % EXPRESSION (%)
Lab book: enter the figure in %, no units written.

Recorded % EXPRESSION for 18256 (antisense e[5mC]e[5mC]eAeTeA*dT*dG*dA*dA*dT*dA*dA*d[5mC]*d[5mC]*dT*eGeAe[5mC]eAeT) [compound 18256] , please? 80

Recorded % EXPRESSION for 18263 (antisense eAeAeGeAeG*dG*dA*dT*dT*dA*dA*dG*dA*dG*dA*eTeTeAeTeT) [compound 18263] , please? 63

Recorded % EXPRESSION for 18266 (DNA eAeGeTeAeA*dG*d[5mC]*d[5mC]*d[5mC]*dG*dG*dT*d[5mC]*dT*d[5mC]*e[5mC]eTeAeAeG; antisense) [compound 18266] , please? 66

Recorded % EXPRESSION for 18267 (DNA eAeAeAeTeG*dG*dA*dA*dA*dA*dG*dG*dA*d[5mC]*dA*eGe[5mC]eAeGe[5mC]; antisense) [compound 18267] , please? 84

Recorded % EXPRESSION for 18257 (antisense eGeAeTeAeT*d[5mC]*dA*dA*d[5mC]*dA*dT*dT*d[5mC]*dT*d[5mC]*e[5mC]eTeTeGeT) [compound 18257] , please? 32
